Give SPOT peptide array binding signal intensity for every item shown.
Molecular target: CaRvs167
Assay: SPOT peptide array binding signal intensity (averaged, normalized) (arbitrary units (background-subtracted, floor 0; scale differs between SH3 domains)); higher = stronger binding of the SH3 domain to the peptide
Answers are plain numbers.

BINDER: NGRRRPKFRVQLSGN
OBSERVED MEASUREMENT: 80.3
--
BINDER: LSKRLPLRFPEHTSS
OBSERVED MEASUREMENT: 15.2
--
BINDER: ATKSASPTLPTRRSR
OBSERVED MEASUREMENT: 607
--
BINDER: RKRRTHLRLPLIRSN
OBSERVED MEASUREMENT: 19
--
BINDER: YVRRRPRVRLEPLLS
OBSERVED MEASUREMENT: 23.8
--
BINDER: RPVPRRPSQPLNTLS
OBSERVED MEASUREMENT: 1240
--
BINDER: DAPASKPSVPPRNYF
OBSERVED MEASUREMENT: 199
--
BINDER: RKNRAPPQRPRFNRE
OBSERVED MEASUREMENT: 26.5

Required: SPOT peptide array binding signal intensity, one value per binder below.
1. SKIRPTPRKPSRMAT
2. MFLISPPASPPPEFD
3. VGFRLALKFPSRITG
4. RPVPPPPPMRTTTEG
5. RLSFFFPLDPAYIRN

**A:**
110
5.83
703
1460
57.8

These measurements were taken from the supplement of paper PMC4466140.
